Below: a set of entries, each annotated with reported logP.
endpoint-label: logP

INSERT INTO measurements (compound, measured_number) VALUES
  ('Clc1ccc(-c2cc(Cl)c(Cl)c(Cl)c2Cl)cc1Cl', 6.75),
  ('Clc1ccc(-c2ccc(Cl)c(Cl)c2Cl)cc1Cl', 6.61),
  ('Clc1cc(Cl)c(-c2cc(Cl)c(Cl)c(Cl)c2)cc1Cl', 6.82),
  ('Clc1ccc(-c2cc(Cl)c(Cl)c(Cl)c2Cl)cc1', 6.47),
  ('Clc1ccc(-c2cc(Cl)c(Cl)cc2Cl)cc1Cl', 6.49),
  ('Clc1ccc(-c2cc(Cl)c(Cl)c(Cl)c2)c(Cl)c1', 6.5),
  ('Clc1cc(-c2cc(Cl)c(Cl)c(Cl)c2)cc(Cl)c1Cl', 7.01),
  ('Clc1ccc(-c2cc(Cl)c(Cl)c(Cl)c2)cc1Cl', 6.56),
  ('Clc1ccc(-c2cc(Cl)c(Cl)c(Cl)c2)cc1', 6.53),
  ('Clc1cc(-c2ccc(Cl)c(Cl)c2Cl)cc(Cl)c1Cl', 6.73),
  ('Clc1cc(-c2cc(Cl)c(Cl)c(Cl)c2Cl)cc(Cl)c1Cl', 7.15);
